- Test target: T1, Cav3.1 (Homo sapiens, UniProt O43497)
- T1 construct: expressed in transfected cells; host or cells: HEK-293, stably transfected
- T1 sequence (O43497 whole entry): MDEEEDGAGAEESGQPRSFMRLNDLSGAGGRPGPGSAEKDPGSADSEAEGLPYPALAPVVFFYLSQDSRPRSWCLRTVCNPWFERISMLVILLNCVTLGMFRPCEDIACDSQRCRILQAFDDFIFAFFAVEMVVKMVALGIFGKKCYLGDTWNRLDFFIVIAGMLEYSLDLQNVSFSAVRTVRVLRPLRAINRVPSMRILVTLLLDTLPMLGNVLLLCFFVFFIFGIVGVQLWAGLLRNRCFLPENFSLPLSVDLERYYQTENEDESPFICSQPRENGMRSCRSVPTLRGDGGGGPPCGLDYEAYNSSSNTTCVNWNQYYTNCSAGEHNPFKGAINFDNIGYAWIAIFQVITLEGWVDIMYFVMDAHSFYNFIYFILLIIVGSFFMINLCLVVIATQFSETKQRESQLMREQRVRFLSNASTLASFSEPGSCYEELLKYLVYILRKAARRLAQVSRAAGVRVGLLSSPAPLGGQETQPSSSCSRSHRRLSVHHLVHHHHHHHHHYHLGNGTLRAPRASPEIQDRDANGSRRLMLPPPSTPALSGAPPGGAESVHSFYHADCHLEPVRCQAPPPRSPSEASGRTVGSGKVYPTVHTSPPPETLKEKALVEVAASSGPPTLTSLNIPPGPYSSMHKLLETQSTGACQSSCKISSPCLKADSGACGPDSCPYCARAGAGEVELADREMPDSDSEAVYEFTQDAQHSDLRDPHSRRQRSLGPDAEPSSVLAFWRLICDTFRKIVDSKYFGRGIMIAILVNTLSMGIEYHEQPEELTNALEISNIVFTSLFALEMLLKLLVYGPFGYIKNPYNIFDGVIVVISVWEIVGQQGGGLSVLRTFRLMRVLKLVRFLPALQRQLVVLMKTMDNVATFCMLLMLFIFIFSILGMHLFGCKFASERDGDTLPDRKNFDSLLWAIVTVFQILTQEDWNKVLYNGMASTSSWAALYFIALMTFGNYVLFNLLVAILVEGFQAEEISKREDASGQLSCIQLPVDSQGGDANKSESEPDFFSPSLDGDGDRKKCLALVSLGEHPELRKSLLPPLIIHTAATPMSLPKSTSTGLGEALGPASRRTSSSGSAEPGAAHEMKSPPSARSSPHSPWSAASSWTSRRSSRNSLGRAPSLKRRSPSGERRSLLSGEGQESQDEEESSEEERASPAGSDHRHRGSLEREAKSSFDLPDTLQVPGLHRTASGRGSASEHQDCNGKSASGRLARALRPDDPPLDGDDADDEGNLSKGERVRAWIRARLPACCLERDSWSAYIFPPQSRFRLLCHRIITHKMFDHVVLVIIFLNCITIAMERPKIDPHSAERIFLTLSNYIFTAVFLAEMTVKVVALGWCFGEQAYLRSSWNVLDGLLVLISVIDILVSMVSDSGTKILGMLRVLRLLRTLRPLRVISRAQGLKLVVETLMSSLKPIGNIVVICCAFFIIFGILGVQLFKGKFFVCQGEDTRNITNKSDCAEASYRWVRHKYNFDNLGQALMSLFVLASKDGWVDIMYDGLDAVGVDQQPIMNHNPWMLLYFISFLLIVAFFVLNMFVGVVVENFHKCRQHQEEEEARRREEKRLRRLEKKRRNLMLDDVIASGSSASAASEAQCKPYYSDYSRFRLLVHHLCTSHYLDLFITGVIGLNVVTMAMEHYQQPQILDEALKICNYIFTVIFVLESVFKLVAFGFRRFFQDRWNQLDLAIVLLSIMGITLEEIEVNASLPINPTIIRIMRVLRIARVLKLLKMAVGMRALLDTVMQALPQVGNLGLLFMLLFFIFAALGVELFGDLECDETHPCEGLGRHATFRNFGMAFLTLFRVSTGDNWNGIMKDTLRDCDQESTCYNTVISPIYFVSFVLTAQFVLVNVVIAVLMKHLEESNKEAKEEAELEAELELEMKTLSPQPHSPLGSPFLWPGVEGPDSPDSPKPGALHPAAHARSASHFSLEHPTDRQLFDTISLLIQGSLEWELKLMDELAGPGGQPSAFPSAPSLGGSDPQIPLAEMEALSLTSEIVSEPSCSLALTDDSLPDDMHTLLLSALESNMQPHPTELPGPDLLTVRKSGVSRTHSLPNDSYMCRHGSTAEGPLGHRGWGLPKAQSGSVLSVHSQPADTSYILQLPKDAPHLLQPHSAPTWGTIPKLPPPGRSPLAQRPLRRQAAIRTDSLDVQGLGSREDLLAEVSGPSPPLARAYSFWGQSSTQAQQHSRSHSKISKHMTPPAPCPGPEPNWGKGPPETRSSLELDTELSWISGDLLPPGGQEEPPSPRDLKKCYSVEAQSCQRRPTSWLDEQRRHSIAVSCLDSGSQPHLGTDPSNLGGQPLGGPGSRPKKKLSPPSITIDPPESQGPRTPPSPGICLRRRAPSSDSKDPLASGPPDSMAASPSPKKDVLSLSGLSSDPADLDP
- Procedure details: Whole-cell patch clamp of Cav3.1 dependent LVA calcium current in HEK-293/Cav3.1 cells transiently transfected with γ subunits (Example 1)
- Type: cell-based
- Condition parameters: Table 2
Reported property: V peak

Some entries whose results are on file:
[
  {
    "Molecule": "γ6S: rat calcium channel γ6 subunit, short isoform (AF361344), SEQ ID NO:49 (protein, listed as Rattus norvegicus) MMWSNFFMQEEDRRRTAVGRRRAQEQQNLGLTPEREGKIKLGLLVAIVGATLAVLAVGTEFWVELNTYKTNGSAVCEAAHLGLWKVCIKRLWQADVPAGRETCGPAELPGEANCTYFKFFTTGENAHIFQRTTKKGLLLFVSLEVFRHSVRALLQGVNPETPPAPRLAYEYSWSLGCGVGAGLILLLGGVCFLLLTLPSWPWRSLCPKRGGPTA",
    "Readout value": "−27.0 ± 2.5 (n = 5) mV"
  },
  {
    "Molecule": "γ7: rat calcium channel γ7 subunit (AF361345), SEQ ID NO:50 (protein, listed as Rattus norvegicus) MSHCSSRALTLLSSVFGACGLLLVGIAVSTDYWLYMEEGTVLPQNQTTEVKMALHAGLWRVCFFAGREKGRCVASEYFLEPEINLVTENTENILKTVRTATPFPMVSLFLVFTAFVISNIGHIRPQRTILAFVSGIFFILSGLSLVVGLVLYISSINDEVMNRPSSSEQYFHYRYGWSFAFAASSFLLKEGAGVMSVYLFTKRYAEEEMYRPHPAFYRPRLSDCSDYSGQFLQPEAWRRGRSPSDISSDVSIQMTQNYPPAIKYPDHLHISTSPC",
    "Readout value": "−24.1 ± 0.9 (n = 11) mV"
  }
]

# evaluate next
// field: V peak; key: γ4: rat calcium channel γ4 subunit (AF361341), SEQ ID NO:47 (protein, listed as Rattus norvegicus) MVRCDRGLQMLLTTAGAFAAFSLMAIAIGTDYWLYSSAHICNGTNLTMDDGPPPRRARGDLTHSGLWRVCCIEGIYKGHCFRINHFPEDNDYDHDSSEYLLRIVRASSVFPILSTILLLLGGLCIGAGRIYSRKNNIVLSAGILFVAAGLSNIIGIIVYISSNTGDPSDKRDEDKKNHYNYGWSFYFGALSFIVAETVGVLAVNIYIEKNKELRFKTKREFLKASSSSPYSRMPSYRYRRRRSRSSSRSTEASPSRDASPVGLKITGAIPMGELSMYTLSREPLKVTTAASYSPDQDAGFLQMHDFFQQDLKEGFHVSMLNRRTTPV ; value = −30.6 ± 1.5 (n = 9) mV
